Biological target: Ephrin type-A receptor 5 (Homo sapiens, UniProt P54756)
Sequence (P54756 whole entry, the tested form may be a part): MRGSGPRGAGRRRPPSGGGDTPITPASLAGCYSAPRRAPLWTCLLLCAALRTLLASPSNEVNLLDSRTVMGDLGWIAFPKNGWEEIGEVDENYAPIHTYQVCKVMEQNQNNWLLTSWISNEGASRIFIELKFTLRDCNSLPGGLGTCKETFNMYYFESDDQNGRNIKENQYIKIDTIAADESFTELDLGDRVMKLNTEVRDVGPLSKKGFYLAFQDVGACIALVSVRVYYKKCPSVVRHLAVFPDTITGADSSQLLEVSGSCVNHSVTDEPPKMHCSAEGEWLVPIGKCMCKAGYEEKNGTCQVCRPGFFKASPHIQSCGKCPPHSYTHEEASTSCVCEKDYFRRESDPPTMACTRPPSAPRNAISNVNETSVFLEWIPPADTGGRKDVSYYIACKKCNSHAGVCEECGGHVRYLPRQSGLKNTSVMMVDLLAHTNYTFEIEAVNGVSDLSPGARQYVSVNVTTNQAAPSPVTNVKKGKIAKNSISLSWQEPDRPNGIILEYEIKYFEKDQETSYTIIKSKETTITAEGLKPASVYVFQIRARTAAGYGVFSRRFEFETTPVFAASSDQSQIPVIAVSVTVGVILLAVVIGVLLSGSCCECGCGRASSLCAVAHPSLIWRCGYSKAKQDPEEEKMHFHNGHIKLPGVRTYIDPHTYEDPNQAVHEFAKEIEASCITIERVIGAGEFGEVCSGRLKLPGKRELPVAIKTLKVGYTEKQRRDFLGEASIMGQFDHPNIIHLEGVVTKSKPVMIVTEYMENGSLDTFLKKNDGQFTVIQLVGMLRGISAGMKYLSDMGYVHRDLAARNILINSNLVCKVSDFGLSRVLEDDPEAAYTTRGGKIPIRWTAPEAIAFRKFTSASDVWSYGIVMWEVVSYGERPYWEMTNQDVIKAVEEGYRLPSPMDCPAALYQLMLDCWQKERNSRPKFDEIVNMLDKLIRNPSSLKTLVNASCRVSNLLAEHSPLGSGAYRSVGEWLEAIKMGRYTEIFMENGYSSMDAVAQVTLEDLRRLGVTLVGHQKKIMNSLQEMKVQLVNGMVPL
Test: Inhibition of recombinant human EphA5 (655 to 956 residues) using poly(Glu, Tyr) 4:1 as substrate measured after 40 mins in presence of [gamma33ATP] by radiometric scintillation counting analysis
pIC50: −log10 of the molar value.
endpoint_label: pIC50

Give recorded pIC50 with Ephrin type-A receptor 5 (Homo sapiens, UniProt P54756) for the following molecule: CN(C)c1ccc(C(=O)Nc2cccc(NC(=O)COc3ccc4c(=O)ccoc4c3)c2)cc1
< 5.00

* * *

Target: Serine/threonine-protein kinase NIM1 (Homo sapiens, UniProt Q8IY84)
Test: Inhibition of recombinant full length human NIM1 using KKKVSRSGLYRSP as substrate measured after 40 mins in presence of [gamma33P]ATP by radiometric scintillation counting analysis
pIC50: −log10 of the molar value.
endpoint_label: pIC50

Query: pIC50; subject: CN(C)c1ccc(C(=O)Nc2cccc(NC(=O)COc3ccc4c(=O)ccoc4c3)c2)cc1
< 5.00

* * *

Molecular target: Serine/threonine-protein kinase Chk2 (Homo sapiens, UniProt O96017, I157T)
Test: Inhibition of recombinant human CHK2 I157T mutant (5 to end residues) using KKKVSRSGLYRSP as substrate incubated for 40 mins in presence of [gamma-33ATP] by radiometric scintillation counting analysis
endpoint_label: IC50

Using the record for CN(C)c1ccc(C(=O)Nc2cccc(NC(=O)COc3ccc4c(=O)ccoc4c3)c2)cc1 , report its IC50.
> 10 µM

* * *

Target: Serine/threonine-protein kinase A-Raf (Homo sapiens)
Assay: Inhibition of human recombinant A-Raf (273 to end residues) using myelin as substrate incubated for 40 mins in presence of [gamma-33ATP] by radiometric scintillation counting analysis
endpoint_label: IC50

Requested field: IC50. Item: CN(C)c1ccc(C(=O)Nc2cccc(NC(=O)COc3ccc4c(=O)ccoc4c3)c2)cc1
> 10 µM

* * *

Molecular target: Serine/threonine-protein kinase ULK1 (Homo sapiens, UniProt O75385)
Test: Inhibition of recombinant human ULK1 (1 to 314 residues) using casein as substrate incubated for 40 mins in presence of [gamma33P]ATP by radiometric scintillation counting analysis
pIC50: −log10 of the molar value.
endpoint_label: pIC50

Fill blank: measured pIC50 of the molecule CN(C)c1ccc(C(=O)Nc2cccc(NC(=O)COc3ccc4c(=O)ccoc4c3)c2)cc1 is ____.
< 5.00

* * *

Molecular target: Mast/stem cell growth factor receptor Kit (Homo sapiens, UniProt P10721, D816V)
Sequence (P10721 26-976 D816V limits assumed): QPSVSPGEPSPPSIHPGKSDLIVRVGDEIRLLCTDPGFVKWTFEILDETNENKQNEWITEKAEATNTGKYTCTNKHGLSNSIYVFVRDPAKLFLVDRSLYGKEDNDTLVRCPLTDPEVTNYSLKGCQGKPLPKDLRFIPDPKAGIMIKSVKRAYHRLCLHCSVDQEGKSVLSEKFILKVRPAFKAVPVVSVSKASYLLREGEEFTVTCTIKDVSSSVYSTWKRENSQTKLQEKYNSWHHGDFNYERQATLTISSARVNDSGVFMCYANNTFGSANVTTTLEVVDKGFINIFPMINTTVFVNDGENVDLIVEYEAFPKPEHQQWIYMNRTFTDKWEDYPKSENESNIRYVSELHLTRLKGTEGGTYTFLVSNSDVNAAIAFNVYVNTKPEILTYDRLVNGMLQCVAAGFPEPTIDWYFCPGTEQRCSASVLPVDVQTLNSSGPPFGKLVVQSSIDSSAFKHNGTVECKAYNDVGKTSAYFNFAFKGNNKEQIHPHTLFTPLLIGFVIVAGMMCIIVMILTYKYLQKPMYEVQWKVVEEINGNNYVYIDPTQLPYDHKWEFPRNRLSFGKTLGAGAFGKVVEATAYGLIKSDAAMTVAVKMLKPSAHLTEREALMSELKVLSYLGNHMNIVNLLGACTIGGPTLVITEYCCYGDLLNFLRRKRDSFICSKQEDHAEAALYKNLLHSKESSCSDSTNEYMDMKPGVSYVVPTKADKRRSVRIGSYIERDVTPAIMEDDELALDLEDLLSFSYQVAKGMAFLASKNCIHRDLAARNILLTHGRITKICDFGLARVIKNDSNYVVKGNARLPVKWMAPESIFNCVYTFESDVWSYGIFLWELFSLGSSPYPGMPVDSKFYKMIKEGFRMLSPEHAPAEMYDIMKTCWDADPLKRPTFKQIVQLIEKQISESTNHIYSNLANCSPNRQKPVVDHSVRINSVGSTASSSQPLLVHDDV
Test: Inhibition of recombinant human C-Kit D816V mutant (544 to end residues) using poly(Glu, Tyr) 4:1 as substrate incubated 40 mins in presence of [gamma-33ATP] by radiometric scintillation counting analysis
endpoint_label: IC50

API: value(readout=IC50, system=Mast/stem cell growth factor receptor Kit (Homo sapiens, UniProt P10721, D816V)) for record CN(C)c1ccc(C(=O)Nc2cccc(NC(=O)COc3ccc4c(=O)ccoc4c3)c2)cc1
> 10 µM

* * *

Target: Serine/threonine-protein kinase ULK2 (Homo sapiens)
Experiment: Inhibition of recombinant human ULK2 (1 to 306 residues) using casein as substrate incubated for 40 mins in presence of [gamma33P]ATP by radiometric scintillation counting analysis
pIC50: −log10 of the molar value.
endpoint_label: pIC50

Can you share its pIC50? I mean this compound: CN(C)c1ccc(C(=O)Nc2cccc(NC(=O)COc3ccc4c(=O)ccoc4c3)c2)cc1
< 5.00

* * *

Target: Serine/threonine-protein kinase pim-1 (Homo sapiens)
Sequence (P11309 whole entry): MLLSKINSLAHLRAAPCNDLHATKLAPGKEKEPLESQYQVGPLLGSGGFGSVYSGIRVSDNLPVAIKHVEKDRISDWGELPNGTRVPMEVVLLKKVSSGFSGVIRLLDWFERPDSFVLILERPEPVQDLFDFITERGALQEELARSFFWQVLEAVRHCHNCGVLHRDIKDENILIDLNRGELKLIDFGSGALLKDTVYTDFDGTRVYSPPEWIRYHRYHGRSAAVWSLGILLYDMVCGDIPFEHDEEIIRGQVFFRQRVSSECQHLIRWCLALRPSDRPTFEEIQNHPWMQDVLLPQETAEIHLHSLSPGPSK
Assay: Inhibition of recombinant full length human Pim1 using KKRNRTLTV as substrate incubated for 40 mins in presence of [gamma33P]ATP by radiometric scintillation counting analysis
endpoint_label: IC50

Look up IC50 for this compound: CN(C)c1ccc(C(=O)Nc2cccc(NC(=O)COc3ccc4c(=O)ccoc4c3)c2)cc1
> 10 µM

* * *

Biological target: Insulin receptor-related protein (Homo sapiens)
Assay: Inhibition of human recombinant IRR (943 to 1266 residues) using myelin basic protein as substrate after 40 mins by [gamma-33ATP] by radiometric scintillation counting analysis
pIC50: −log10 of the molar value.
endpoint_label: pIC50

Need pIC50 of CN(C)c1ccc(C(=O)Nc2cccc(NC(=O)COc3ccc4c(=O)ccoc4c3)c2)cc1 , thanks.
< 5.00

* * *

Molecular target: Epidermal growth factor receptor (Homo sapiens, UniProt P00533, T790M)
Assay: Inhibition of recombinant human EGFR T790M mutant (696 to end residues) using poly(Glu, Tyr) 4:1 as substrate after 40 mins in presence of [gamma-33ATP] by radiometric scintillation counting analysis
endpoint_label: IC50

Entry under review: CN(C)c1ccc(C(=O)Nc2cccc(NC(=O)COc3ccc4c(=O)ccoc4c3)c2)cc1 . Reported IC50?
> 10 µM

* * *

Biological target: Receptor tyrosine-protein kinase erbB-2 (Homo sapiens, UniProt P04626, G778D)
Sequence (P04626 23-1255 G778D limits assumed): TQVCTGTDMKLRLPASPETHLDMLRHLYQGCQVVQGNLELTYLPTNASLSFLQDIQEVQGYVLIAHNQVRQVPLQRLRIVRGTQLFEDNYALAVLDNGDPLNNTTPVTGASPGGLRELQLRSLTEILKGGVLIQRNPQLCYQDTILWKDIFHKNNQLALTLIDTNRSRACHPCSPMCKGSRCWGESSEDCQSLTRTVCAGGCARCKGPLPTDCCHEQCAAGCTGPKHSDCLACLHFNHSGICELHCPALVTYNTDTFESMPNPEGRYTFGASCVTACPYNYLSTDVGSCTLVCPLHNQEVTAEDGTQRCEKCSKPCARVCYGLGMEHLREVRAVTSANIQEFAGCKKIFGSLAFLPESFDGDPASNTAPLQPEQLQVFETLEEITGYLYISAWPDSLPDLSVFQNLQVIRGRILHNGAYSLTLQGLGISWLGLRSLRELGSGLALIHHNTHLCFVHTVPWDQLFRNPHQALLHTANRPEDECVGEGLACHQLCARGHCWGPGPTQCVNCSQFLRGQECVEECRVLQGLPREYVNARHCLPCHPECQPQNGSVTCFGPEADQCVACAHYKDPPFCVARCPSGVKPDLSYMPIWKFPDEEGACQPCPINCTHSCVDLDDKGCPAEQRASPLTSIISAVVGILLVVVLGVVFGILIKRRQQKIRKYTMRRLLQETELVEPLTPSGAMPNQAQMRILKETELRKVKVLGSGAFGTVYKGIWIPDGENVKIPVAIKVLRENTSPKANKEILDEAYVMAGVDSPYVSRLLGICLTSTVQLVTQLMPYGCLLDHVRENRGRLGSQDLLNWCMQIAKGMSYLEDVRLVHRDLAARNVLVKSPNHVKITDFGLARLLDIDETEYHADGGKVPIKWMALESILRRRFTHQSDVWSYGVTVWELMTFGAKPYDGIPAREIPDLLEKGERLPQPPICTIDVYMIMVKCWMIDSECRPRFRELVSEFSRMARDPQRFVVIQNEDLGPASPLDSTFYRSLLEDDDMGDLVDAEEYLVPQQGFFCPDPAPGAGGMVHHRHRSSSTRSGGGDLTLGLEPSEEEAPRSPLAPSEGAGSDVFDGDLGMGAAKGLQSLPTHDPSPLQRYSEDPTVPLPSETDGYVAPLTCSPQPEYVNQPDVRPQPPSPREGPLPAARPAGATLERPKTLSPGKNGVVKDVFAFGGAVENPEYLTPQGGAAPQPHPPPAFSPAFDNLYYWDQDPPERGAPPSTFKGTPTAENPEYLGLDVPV
Assay: Inhibition of recombinant human ERBB2 G778D (676 to end residues) using poly(Glu, Tyr) 4:1 as substrate after 40 mins in presence of [gamma-33ATP] by radiometric scintillation counting analysis
pIC50: −log10 of the molar value.
endpoint_label: pIC50

Endpoint output: pIC50 of CN(C)c1ccc(C(=O)Nc2cccc(NC(=O)COc3ccc4c(=O)ccoc4c3)c2)cc1 . Value?
< 5.00

* * *

Test: Inhibition of human PIP4K2
pIC50: −log10 of the molar value.
endpoint_label: pIC50

Name the recorded pIC50 for CN(C)c1ccc(C(=O)Nc2cccc(NC(=O)COc3ccc4c(=O)ccoc4c3)c2)cc1 .
< 5.00

* * *

Biological target: Myosin light chain kinase 2, skeletal/cardiac muscle (Homo sapiens)
Sequence (Q9H1R3 whole entry): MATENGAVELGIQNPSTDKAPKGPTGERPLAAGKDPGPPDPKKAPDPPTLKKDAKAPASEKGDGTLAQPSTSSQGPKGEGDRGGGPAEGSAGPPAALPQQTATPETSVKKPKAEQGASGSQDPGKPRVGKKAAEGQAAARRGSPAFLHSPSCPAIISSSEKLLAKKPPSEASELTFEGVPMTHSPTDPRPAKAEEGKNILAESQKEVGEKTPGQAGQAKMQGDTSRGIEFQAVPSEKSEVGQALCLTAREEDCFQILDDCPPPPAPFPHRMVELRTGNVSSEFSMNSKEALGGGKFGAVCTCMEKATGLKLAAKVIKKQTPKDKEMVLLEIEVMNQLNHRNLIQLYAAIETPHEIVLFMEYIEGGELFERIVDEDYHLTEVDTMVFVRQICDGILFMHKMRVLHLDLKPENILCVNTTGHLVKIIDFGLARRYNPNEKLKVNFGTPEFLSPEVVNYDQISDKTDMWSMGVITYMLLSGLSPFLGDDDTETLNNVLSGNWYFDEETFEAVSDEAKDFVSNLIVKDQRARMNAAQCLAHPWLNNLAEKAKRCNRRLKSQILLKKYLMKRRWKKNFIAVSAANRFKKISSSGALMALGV
Experiment: Inhibition of recombinant full length human MYLK2 using KKLNRTLSFAEPG as substrate measured after 40 mins in presence of [gamma33P]ATP by radiometric scintillation counting analysis
endpoint_label: IC50

Test system Myosin light chain kinase 2, skeletal/cardiac muscle (Homo sapiens); read-out IC50; what value for CN(C)c1ccc(C(=O)Nc2cccc(NC(=O)COc3ccc4c(=O)ccoc4c3)c2)cc1 ?
> 10 µM

* * *

Biological target: Serine/threonine-protein kinase 38-like (Homo sapiens)
Sequence (Q9Y2H1 whole entry): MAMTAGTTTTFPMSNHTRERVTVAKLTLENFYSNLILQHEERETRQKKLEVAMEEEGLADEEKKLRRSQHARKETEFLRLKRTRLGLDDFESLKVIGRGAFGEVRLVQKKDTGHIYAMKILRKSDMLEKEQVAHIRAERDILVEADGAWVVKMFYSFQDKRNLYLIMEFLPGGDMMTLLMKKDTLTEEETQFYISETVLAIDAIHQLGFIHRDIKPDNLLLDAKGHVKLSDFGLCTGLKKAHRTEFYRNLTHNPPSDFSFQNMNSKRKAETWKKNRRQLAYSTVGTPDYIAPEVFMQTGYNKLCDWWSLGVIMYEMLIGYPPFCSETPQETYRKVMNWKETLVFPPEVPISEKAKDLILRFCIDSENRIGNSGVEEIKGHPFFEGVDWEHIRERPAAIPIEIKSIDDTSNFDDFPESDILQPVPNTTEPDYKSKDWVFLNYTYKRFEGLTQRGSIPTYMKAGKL
Experiment: Inhibition of recombinant human NDR2 (83 to end residues) using RSRSRSRSRSRSRSR as substrate measured after 40 mins in presence of [gamma33P]ATP by radiometric scintillation counting analysis
endpoint_label: IC50

What measured IC50 goes with CN(C)c1ccc(C(=O)Nc2cccc(NC(=O)COc3ccc4c(=O)ccoc4c3)c2)cc1 ?
> 10 µM

* * *

Biological target: Phosphorylase b kinase gamma catalytic chain, skeletal muscle/heart isoform (Homo sapiens, UniProt Q16816)
Experiment: Inhibition of recombinant full-length human PhKgamma1 using KKLNRTLSFAEPG as substrate incubated for 40 mins in presence of [gamma33P]ATP by radiometric scintillation counting analysis
endpoint_label: IC50

Any idea what its IC50 is? The compound is CN(C)c1ccc(C(=O)Nc2cccc(NC(=O)COc3ccc4c(=O)ccoc4c3)c2)cc1
> 10 µM

* * *

Target: Tyrosine-protein kinase CSK (Homo sapiens, UniProt P41240)
Assay: Inhibition of recombinant full length human CSK using poly(Glu, Tyr) 4:1 as substrate incubated 40 mins in presence of [gamma-33ATP] by radiometric scintillation counting analysis
endpoint_label: IC50

Find the measured IC50: item CN(C)c1ccc(C(=O)Nc2cccc(NC(=O)COc3ccc4c(=O)ccoc4c3)c2)cc1 , target or system Tyrosine-protein kinase CSK (Homo sapiens, UniProt P41240).
> 10 µM

* * *

Target: Rhodopsin kinase GRK7 (Homo sapiens, UniProt Q8WTQ7)
Sequence (Q8WTQ7 whole entry): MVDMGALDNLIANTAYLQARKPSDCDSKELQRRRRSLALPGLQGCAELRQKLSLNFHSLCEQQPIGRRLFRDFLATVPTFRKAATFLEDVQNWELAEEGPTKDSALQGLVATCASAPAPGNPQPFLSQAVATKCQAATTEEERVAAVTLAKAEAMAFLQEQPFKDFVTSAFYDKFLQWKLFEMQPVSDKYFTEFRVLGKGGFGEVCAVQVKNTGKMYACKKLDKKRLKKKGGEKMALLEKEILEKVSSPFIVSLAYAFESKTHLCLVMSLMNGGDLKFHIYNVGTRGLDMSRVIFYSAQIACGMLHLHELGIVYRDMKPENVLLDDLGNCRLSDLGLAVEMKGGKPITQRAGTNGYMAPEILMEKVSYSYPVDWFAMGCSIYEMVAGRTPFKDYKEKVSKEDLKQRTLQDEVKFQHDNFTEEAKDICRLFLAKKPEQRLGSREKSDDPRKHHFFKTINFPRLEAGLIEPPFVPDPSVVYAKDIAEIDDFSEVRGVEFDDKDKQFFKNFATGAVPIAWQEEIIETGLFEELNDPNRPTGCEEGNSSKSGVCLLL
Assay: Inhibition of recombinant full length human GRK7 using casein as substrate after 40 mins in presence of [gamma-33ATP] by radiometric scintillation counting analysis
endpoint_label: IC50

I am curious: what IC50 value has been reported for CN(C)c1ccc(C(=O)Nc2cccc(NC(=O)COc3ccc4c(=O)ccoc4c3)c2)cc1 ?
> 10 µM

* * *

Biological target: Dual specificity protein kinase CLK4 (Homo sapiens)
Sequence (Q9HAZ1 whole entry): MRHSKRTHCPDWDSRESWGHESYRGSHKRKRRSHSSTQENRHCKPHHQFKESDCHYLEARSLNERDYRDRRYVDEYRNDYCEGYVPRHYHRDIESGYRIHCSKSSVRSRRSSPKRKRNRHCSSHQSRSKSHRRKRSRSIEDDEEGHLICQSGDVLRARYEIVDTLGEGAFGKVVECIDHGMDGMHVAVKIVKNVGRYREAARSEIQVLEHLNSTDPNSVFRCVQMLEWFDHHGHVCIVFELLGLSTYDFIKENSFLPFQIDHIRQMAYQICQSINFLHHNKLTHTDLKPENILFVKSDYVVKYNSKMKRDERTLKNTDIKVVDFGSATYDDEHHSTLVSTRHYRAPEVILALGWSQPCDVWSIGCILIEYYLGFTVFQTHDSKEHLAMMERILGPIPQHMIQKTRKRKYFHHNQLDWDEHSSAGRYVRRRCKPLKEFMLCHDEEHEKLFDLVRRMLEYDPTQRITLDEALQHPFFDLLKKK
Experiment: Inhibition of recombinant human CLK4 (128 to end residues) using YRRAAVPPSPSLSR as substrate incubated 40 mins in presence of [gamma-33ATP] by radiometric scintillation counting analysis
endpoint_label: IC50

# get_value(readout= IC50, system= Dual specificity protein kinase CLK4 (Homo sapiens)) for CN(C)c1ccc(C(=O)Nc2cccc(NC(=O)COc3ccc4c(=O)ccoc4c3)c2)cc1
> 10 µM
